Target: Aβ42 (Homo sapiens)
Experiment: Th-T (thioflavin-T) assay of Aβ42 aggregation
Assay type: biochemical
Conditions: concentration 20, unit not given; time-course reading M135
readout-name: Th-T fluorescence of Aβ42 with compound, mean of three wells (Fig. 7a source data)

[[record]]
molecule = "C=C1CCC2C(C)(CCC=C(C)C)C(O)CCC2(C)C1Cc1c(OC)oc(CO)c(C(=O)OC)c1=O (centres unmarked)"
test_system = "Aβ42 (Homo sapiens)"
value = 1.025

[[record]]
molecule = "C=C1CC[C@@H]2[C@](C)(CC[C@H]3O[C@H](C=C(C)C)C[C@@]23C)[C@@H]1Cc1c(OC)oc(CO)c(C)c1=O"
test_system = "Aβ42 (Homo sapiens)"
value = 3.076

[[record]]
molecule = "C=C1CCC2C(C)(CCC=C(C)C)C(O)CCC2(C)C1Cc1c(OC)oc(CO)c(C)c1=O (centres unmarked)"
test_system = "Aβ42 (Homo sapiens)"
value = 2.232

[[record]]
molecule = "C=C1CCC2C(C)(CCC=C(C)C)C(O)CCC2(C)C1Cc1c(OC)oc(C)c(C(=O)OC)c1=O (centres unmarked)"
test_system = "Aβ42 (Homo sapiens)"
value = 1.594

[[record]]
molecule = "C=C1CC[C@@H]2[C@](C)(CC[C@H]3O[C@H](C=C(C)C)C[C@@]23C)[C@@H]1Cc1c(OC)oc(CO)c(C(=O)OC)c1=O"
test_system = "Aβ42 (Homo sapiens)"
value = 0.9636


----------
Molecular target: Aβ42 (Homo sapiens)
Assay: Th-T (thioflavin-T) assay of Aβ42 aggregation
Format: biochemical
Conditions: time-course reading M101; Supplementary Fig. 47 source data
In this section we review reported Th-T fluorescence, mean of three wells values for a set of compounds.
readout-name: Th-T fluorescence, mean of three wells

[[record]]
compound = "C=C1CC[C@H]2[C@]3(C)C[C@H](C=C(C)C)O[C@H]3CC[C@]2(C)[C@@H]1Cc1c(O)c(C)c(C)oc1=O [Compound 6, subglutinol B]"
test_system = "Aβ42 (Homo sapiens)"
readout_name = "Th-T fluorescence, mean of three wells"
value = 3.118

[[record]]
compound = "C=C1CC[C@@H]2[C@](C)(CC[C@H]3O[C@H](C=C(C)C)C[C@@]23C)[C@@H]1Cc1c(OC)oc(CO)c(C(=O)OC)c1=O [Compound 21]"
test_system = "Aβ42 (Homo sapiens)"
readout_name = "Th-T fluorescence, mean of three wells"
value = 1.038

[[record]]
compound = "C=C1CCC2C(C)(CCC=C(C)C)C(O)CCC2(C)C1Cc1c(OC)oc(C)c(C)c1=O (stereo not drawn) [Compound 11]"
test_system = "Aβ42 (Homo sapiens)"
readout_name = "Th-T fluorescence, mean of three wells"
value = 3.529


----------
Biological target: Aβ42 (Homo sapiens, UniProt P05067)
Sequence (P05067 672-713): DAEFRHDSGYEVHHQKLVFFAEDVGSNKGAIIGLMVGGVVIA
Assay: Th-T (thioflavin-T) assay of Aβ42 aggregation
Type: biochemical
Conditions: time-course reading M110; Supplementary Fig. 47 source data
In this section we review reported Th-T fluorescence, mean of three wells values for a set of compounds.
readout-name: Th-T fluorescence, mean of three wells

[[record]]
compound = "C=C1CC[C@H]2[C@]3(C)C[C@@H](C=C(C)C)O[C@H]3CC[C@]2(C)[C@@H]1Cc1c(O)c(C)c(C)oc1=O"
readout_name = "Th-T fluorescence, mean of three wells"
value = 2.682

[[record]]
compound = "C=C1CCC2C(C)(CCC=C(C)C)C(O)CCC2(C)C1Cc1c(OC)oc(C)c(C(=O)OC)c1=O (stereo not shown)"
readout_name = "Th-T fluorescence, mean of three wells"
value = 1.6366

[[record]]
compound = "C=C1CCC2C(C)(CCC=C(C)C)C(O)CCC2(C)C1Cc1c(O)c(C)c(C)oc1=O (stereo not shown) [Compound 9, higginsianin B]"
readout_name = "Th-T fluorescence, mean of three wells"
value = 2.799

[[record]]
compound = "C=C1CCC2C(C)(CCC=C(C)C)C(O)CCC2(C)C1Cc1c(O)c(C)c(C)oc1=O (stereo not shown) [Compound 4]"
readout_name = "Th-T fluorescence, mean of three wells"
value = 2.789


----------
Tested on: DL1 cells
Assay: cytotoxicity in Drosophila DL1 cells
Assay type: cell-based
Conditions: read-out: IC50 Average; DL1 cells, cytotoxicity, average of two replicates
pIC50: −log10 of the molar value.
In this section we review reported pIC50 values for a set of compounds.
readout-name: pIC50

[[record]]
compound = "C=C1CCC2C(C)(CCC=C(C)C)C(O)CCC2(C)C1Cc1c(OC)oc(C)c(C)c1=O (centres unmarked) [Compound 15, viridoxin A hydrolysate]"
readout_name = "pIC50"
value = 5.21

[[record]]
compound = "C=C1CCC2C(C)(CCC=C(C)C)C(O)CCC2(C)C1Cc1c(OC)oc(C)c(C)c1=O (centres unmarked) [Compound 11]"
readout_name = "pIC50"
value = 6.40


----------
Assay: cytotoxicity in Drosophila l(2)mbn cells
Format: cell-based
Conditions: Drosophila, l(2)mbn cells (larval blood cell-derived), 4 µM, replicate 1, relative to DMSO 1%, read-out: % viability, viability 1
readout-name: viability at 4 µM (%)

[[record]]
compound = "C=C1CC[C@@H]2[C@](C)(CC[C@H]3O[C@H](C=C(C)C)C[C@@]23C)[C@@H]1Cc1c(O)c(C)c(C)oc1=O"
value = 7.39

[[record]]
compound = "C=C1CC[C@H]2[C@]3(C)C[C@H](C=C(C)C)O[C@H]3CC[C@]2(C)[C@@H]1Cc1c(O)c(C)c(C)oc1=O"
value = 8.58

[[record]]
compound = "C=C1CCC2C(C)(CCC=C(C)C)C(=O)CCC2(C)C1Cc1c(O)c(C)c(C)oc1=O (stereo not drawn)"
value = 70.7

[[record]]
compound = "C=C1CC[C@@H]2[C@](C)(CC[C@H]3O[C@H](C=C(C)C)C[C@@]23C)[C@@H]1Cc1c(OC)oc(CO)c(C)c1=O"
value = 1.55

[[record]]
compound = "C=C1CCC2C(C)(CCC=C(C)C)C(O)CCC2(C)C1Cc1c(OC)oc(CO)c(C)c1=O (stereo not drawn)"
value = 16.2

[[record]]
compound = "C=C1CCC2C(C)(CCC=C(C)C)C(O)CCC2(C)C1Cc1c(OC)oc(CO)c(C(=O)OC)c1=O (stereo not drawn)"
value = 90.9


----------
Target: Aβ42 (Homo sapiens, UniProt P05067)
Experiment: Th-T (thioflavin-T) assay of Aβ42 aggregation
Assay type: biochemical
Conditions: time-course reading M112; Supplementary Fig. 47 source data
readout-name: Th-T fluorescence, mean of three wells

[[record]]
compound = "C=C1CC[C@@H]2[C@](C)(CC[C@H]3O[C@H](C=C(C)C)C[C@@]23C)[C@@H]1Cc1c(O)c(C)c(C)oc1=O"
readout_name = "Th-T fluorescence, mean of three wells"
value = 3.021

[[record]]
compound = "C=C1CCC2C(C)(CCC=C(C)C)C(=O)CCC2(C)C1Cc1c(O)c(C)c(C)oc1=O (stereo not drawn)"
readout_name = "Th-T fluorescence, mean of three wells"
value = 2.214

[[record]]
compound = "C=C1CCC2C(C)(CCC=C(C)C)C(O)CCC2(C)C1Cc1c(OC)oc(CO)c(C)c1=O (stereo not drawn)"
readout_name = "Th-T fluorescence, mean of three wells"
value = 2.064


----------
Target: Aβ42 (Homo sapiens, UniProt P05067)
Assay: Th-T (thioflavin-T) assay of Aβ42 aggregation
Assay type: biochemical
Settings: time course, reading M59
In this section we review reported Th-T fluorescence, mean of three wells values for a set of compounds.
readout-name: Th-T fluorescence, mean of three wells

[[record]]
compound = "C=C1CC[C@@H]2[C@](C)(CC[C@H]3O[C@H](C=C(C)C)C[C@@]23C)[C@@H]1Cc1c(O)c(C)c(C)oc1=O"
readout_name = "Th-T fluorescence, mean of three wells"
value = 3.0965

[[record]]
compound = "C=C1CC[C@H]2[C@]3(C)C[C@@H](C=C(C)C)O[C@H]3CC[C@]2(C)[C@@H]1Cc1c(OC)oc(CO)c(C)c1=O"
readout_name = "Th-T fluorescence, mean of three wells"
value = 3.637

[[record]]
compound = "C=C1CCC2C(C)(CC(=O)C=C(C)C)C(O)CCC2(C)C1Cc1c(O)c(C)c(C)oc1=O (centres unmarked)"
readout_name = "Th-T fluorescence, mean of three wells"
value = 3.578

[[record]]
compound = "C=C1CCC2C(C)(CC(=O)C=C(C)C)C(O)CCC2(C)C1Cc1c(OC)oc(CO)c(C)c1=O (centres unmarked)"
readout_name = "Th-T fluorescence, mean of three wells"
value = 3.598

[[record]]
compound = "C=C1CC[C@H]2[C@]3(C)C[C@H](C=C(C)C)O[C@H]3CC[C@]2(C)[C@@H]1Cc1c(O)c(C)c(C)oc1=O"
readout_name = "Th-T fluorescence, mean of three wells"
value = 3.098


----------
Target: Aβ42 (Homo sapiens, UniProt P05067)
Experiment: Th-T (thioflavin-T) assay of Aβ42 aggregation
Type: biochemical
Settings: head suffix _20 (concentration 20); reading M80
readout-name: Th-T fluorescence of Aβ42 (sheet Fig. 7a), mean of three wells

[[record]]
compound = "C=C1CCC2C(C)(CCC=C(C)C)C(O)CCC2(C)C1Cc1c(OC)oc(CO)c(C)c1=O (centres unmarked)"
test_system = "Aβ42 (Homo sapiens, UniProt P05067)"
value = 2.11

[[record]]
compound = "C=C1CC[C@@H]2[C@](C)(CC[C@H]3O[C@H](C=C(C)C)C[C@@]23C)[C@@H]1Cc1c(OC)oc(CO)c(C(=O)OC)c1=O"
test_system = "Aβ42 (Homo sapiens, UniProt P05067)"
value = 0.4085

[[record]]
compound = "C=C1CC[C@@H]2[C@](C)(CC[C@H]3O[C@H](C=C(C)C)C[C@@]23C)[C@@H]1Cc1c(OC)oc(CO)c(C)c1=O"
test_system = "Aβ42 (Homo sapiens, UniProt P05067)"
value = 3.347

[[record]]
compound = "C=C1CCC2C(C)(CCC=C(C)C)C(O)CCC2(C)C1Cc1c(OC)oc(CO)c(C(=O)OC)c1=O (centres unmarked)"
test_system = "Aβ42 (Homo sapiens, UniProt P05067)"
value = 1.0496

[[record]]
compound = "C=C1CCC2C(C)(CCC=C(C)C)C(O)CCC2(C)C1Cc1c(OC)oc(C)c(C(=O)OC)c1=O (centres unmarked)"
test_system = "Aβ42 (Homo sapiens, UniProt P05067)"
value = 1.931

